System: HeLa
Test Protocol: Induction of apoptosis in human HeLa cells assessed as increase in caspase-3 activity by measuring pNA release level at 16 uM incubated for 4 hrs using c-DEVD-pNA substrate by colorimetric assay
Assay type: functional
Could you please report measured Activity for the items listed next?
Give bare numbers, in nmol/min/mL.

Smiles Record: CC1=C(COC(=O)C(C)(C)C)C(=O)O[C@@H]([C@@H](C)[C@H]2CC[C@H]3[C@@H]4C[C@H]5O[C@]56[C@@H](OC(=O)C(C)(C)C)C=CC(=O)[C@]6(C)[C@H]4CC[C@]23C)C1
Test Readout: Activity
Units Of Measure: nmol/min/mL
Reported Measurement: 0.28

State the recorded Activity for every item in the following list.
1. CCC(=O)OCC1=C(C)C[C@H]([C@@H](C)[C@H]2CC[C@H]3[C@@H]4C[C@H]5O[C@]56[C@@H](O)C=CC(=O)[C@]6(C)[C@H]4CC[C@]23C)OC1=O
2. CCCC(=O)OCC1=C(C)C[C@H]([C@@H](C)[C@H]2CC[C@H]3[C@@H]4C[C@H]5O[C@]56[C@@H](OC(=O)CCC)C=CC(=O)[C@]6(C)[C@H]4CC[C@]23C)OC1=O
3. CCC(=O)OCC1=C(C)C[C@H]([C@@H](C)[C@H]2CC[C@H]3[C@@H]4C[C@H]5O[C@]56[C@@H](OC(=O)CC)C=CC(=O)[C@]6(C)[C@H]4CC[C@]23C)OC1=O

[reply]
[1.02, 0.93, 2.3]

State the recorded Activity for every item in the following list.
1. CC1=C(COC(=O)c2ccccc2)C(=O)O[C@@H]([C@@H](C)[C@H]2CC[C@H]3[C@@H]4C[C@H]5O[C@]56C(=O)C=CC(=O)[C@]6(C)[C@H]4CC[C@]23C)C1
2. CCCC(=O)OCC1=C(C)C[C@H]([C@@H](C)[C@H]2CC[C@H]3[C@@H]4C[C@H]5O[C@]56[C@@H](O)C=CC(=O)[C@]6(C)[C@H]4CC[C@]23C)OC1=O
3. CC1=C(COC(=O)c2ccccc2)C(=O)O[C@@H]([C@@H](C)[C@H]2CC[C@H]3[C@@H]4C[C@H]5O[C@]56[C@@H](O)C=CC(=O)[C@]6(C)[C@H]4CC[C@]23C)C1
4. CC1=C(CO)C(=O)O[C@@H]([C@@H](C)[C@H]2CC[C@H]3[C@@H]4C[C@H]5O[C@]56[C@@H](O)C=CC(=O)[C@]6(C)[C@H]4CC[C@]23C)C1

[reply]
1. 0.67
2. 1.22
3. 0.67
4. 0.47

State the recorded Activity for every item in the following list.
1. CC1=C(COC(=O)C(C)(C)C)C(=O)O[C@@H]([C@@H](C)[C@H]2CC[C@H]3[C@@H]4C[C@H]5O[C@]56[C@@H](O)C=CC(=O)[C@]6(C)[C@H]4CC[C@]23C)C1
2. CC(=O)OCC1=C(C)C[C@H]([C@@H](C)[C@H]2CC[C@H]3[C@@H]4C[C@H]5O[C@]56[C@@H](OC(C)=O)C=CC(=O)[C@]6(C)[C@H]4CC[C@]23C)OC1=O
3. CC1=C(COC(=O)c2ccoc2)C(=O)O[C@@H]([C@@H](C)[C@H]2CC[C@H]3[C@@H]4C[C@H]5O[C@]56[C@@H](O)C=CC(=O)[C@]6(C)[C@H]4CC[C@]23C)C1

[reply]
[0.78, 0.5, 0.62]

* * *

Could you please report measured Activity for the items listed next?
Test system: HeLa
Test Protocol: Induction of apoptosis in human HeLa cells assessed as increase in caspase-3 activity by measuring pNA release level at 8 uM incubated for 4 hrs using c-DEVD-pNA substrate by colorimetric assay
Assay type: functional
One number for each entry, in nmol/min/mL.

Worked set:
Smiles Record: CC1=C(COC(=O)c2ccoc2)C(=O)O[C@@H]([C@@H](C)[C@H]2CC[C@H]3[C@@H]4C[C@H]5O[C@]56[C@@H](O)C=CC(=O)[C@]6(C)[C@H]4CC[C@]23C)C1
Units Of Measure: nmol/min/mL
Activity: 0.44

Smiles Record: CCC(=O)OCC1=C(C)C[C@H]([C@@H](C)[C@H]2CC[C@H]3[C@@H]4C[C@H]5O[C@]56[C@@H](O)C=CC(=O)[C@]6(C)[C@H]4CC[C@]23C)OC1=O
Units Of Measure: nmol/min/mL
Activity: 0.52

Smiles Record: CC1=C(COC(=O)c2ccccc2)C(=O)O[C@@H]([C@@H](C)[C@H]2CC[C@H]3[C@@H]4C[C@H]5O[C@]56[C@@H](O)C=CC(=O)[C@]6(C)[C@H]4CC[C@]23C)C1
Units Of Measure: nmol/min/mL
Activity: 0.32

State the recorded Activity for every item in the following list.
1. CC(=O)OCC1=C(C)C[C@H]([C@@H](C)[C@H]2CC[C@H]3[C@@H]4C[C@H]5O[C@]56[C@@H](OC(C)=O)C=CC(=O)[C@]6(C)[C@H]4CC[C@]23C)OC1=O
2. CCCC(=O)OCC1=C(C)C[C@H]([C@@H](C)[C@H]2CC[C@H]3[C@@H]4C[C@H]5O[C@]56[C@@H](O)C=CC(=O)[C@]6(C)[C@H]4CC[C@]23C)OC1=O

[reply]
1. 0.33
2. 0.54

* * *

System: HeLa
Test Protocol: Cytotoxicity against human HeLa cells assessed as reduction in cell viability using compound addition to cell culture cells in log phase of growth and incubated for 48 hrs by MTT assay
Format: functional, cell-based
Run Parameters: Homo sapiens, HeLa, 48 h; read-out: IC50
Test Readout: IC50 (µM)
One number for each entry, in µM.

Worked set:
Smiles Record: CCC(=O)OCC1=C(C)C[C@H]([C@@H](C)[C@H]2CC[C@H]3[C@@H]4C[C@H]5O[C@]56[C@@H](O)C=CC(=O)[C@]6(C)[C@H]4CC[C@]23C)OC1=O
Test Readout: IC50
Units Of Measure: µM
Reported Measurement: 1.1
--
Smiles Record: C=CCOC(=O)/C(CO)=C(C)\C=C\[C@@H](C)[C@H]1CC[C@H]2[C@@H]3C[C@H]4O[C@]45[C@@H](O)C=CC(=O)[C@]5(C)[C@H]3CC[C@]12C
Test Readout: IC50
Units Of Measure: µM
Reported Measurement: 7.1
--
Smiles Record: CC1=C(COC(=O)c2ccoc2)C(=O)O[C@@H]([C@@H](C)[C@H]2CC[C@H]3[C@@H]4C[C@H]5O[C@]56[C@@H](OC(=O)c5ccoc5)C=CC(=O)[C@]6(C)[C@H]4CC[C@]23C)C1
Test Readout: IC50
Units Of Measure: µM
Reported Measurement: 3.8
--
Smiles Record: CC(=O)OCC1=C(C)C[C@H]([C@@H](C)[C@H]2CC[C@H]3[C@@H]4C[C@H]5O[C@]56[C@@H](OC(=O)c5ccc(Br)cc5)C=CC(=O)[C@]6(C)[C@H]4CC[C@]23C)OC1=O
Test Readout: IC50
Units Of Measure: µM
Reported Measurement: 2.1

Now for a further molecule.
[ask] Would you kindly share the measured IC50 for `CC1=C(COC(=O)c2cccc3ccccc23)C(=O)O[C@@H]([C@@H](C)[C@H]2CC[C@H]3[C@@H]4C[C@H]5O[C@]56[C@@H](O)C=CC(=O)[C@]6(C)[C@H]4CC[C@]23C)C1` ?
[reply] 3.5

* * *

Test system: A549
Test Protocol: Cytotoxicity against human A549 cells assessed as reduction in cell viability using compound addition to cell culture cells in log phase of growth and incubated for 48 hrs by MTT assay
Assay type: functional, cell-based
Run Parameters: Homo sapiens, A549, 48 h; read-out: IC50
Could you please report measured IC50 for the items listed next?
One number for each entry, in µM.

Worked set:
Smiles Record: CCC(=O)OCC1=C(C)C[C@H]([C@@H](C)[C@H]2CC[C@H]3[C@@H]4C[C@H]5O[C@]56[C@@H](O)C=CC(=O)[C@]6(C)[C@H]4CC[C@]23C)OC1=O
Assay Target: A549
IC50 / µM: 2.1

Smiles Record: CC1=C(COC(=O)c2cccc3ccccc23)C(=O)O[C@@H]([C@@H](C)[C@H]2CC[C@H]3[C@@H]4C[C@H]5O[C@]56[C@@H](O)C=CC(=O)[C@]6(C)[C@H]4CC[C@]23C)C1
Assay Target: A549
IC50 / µM: 13.7

Smiles Record: CC1=C(CO[Si](C)(C)C(C)(C)C)C(=O)O[C@@H]([C@@H](C)[C@H]2CC[C@H]3[C@@H]4C[C@H](Cl)[C@]5(O)[C@@H](O)C=CC(=O)[C@]5(C)[C@H]4CC[C@]23C)C1
Assay Target: A549
IC50 / µM: 3.8

Now for a further compound.
[ask] Would you kindly share the measured IC50 for `CNc1ccccc1C(=O)OCC1=C(C)C[C@H]([C@@H](C)[C@H]2CC[C@H]3[C@@H]4C[C@H]5O[C@]56[C@@H](O)C=CC(=O)[C@]6(C)[C@H]4CC[C@]23C)OC1=O` ?
[reply] 4.7
